Tgt: HDAC6 enzyme (Homo sapiens)
Construct: prepared by transducing full length HDAC1 and HDAC6 genes into Sf-9 insect cells; GST; purchased SignalChem; host or cells: Sf-9 insect cells
Sequence (Q9UBN7 whole entry): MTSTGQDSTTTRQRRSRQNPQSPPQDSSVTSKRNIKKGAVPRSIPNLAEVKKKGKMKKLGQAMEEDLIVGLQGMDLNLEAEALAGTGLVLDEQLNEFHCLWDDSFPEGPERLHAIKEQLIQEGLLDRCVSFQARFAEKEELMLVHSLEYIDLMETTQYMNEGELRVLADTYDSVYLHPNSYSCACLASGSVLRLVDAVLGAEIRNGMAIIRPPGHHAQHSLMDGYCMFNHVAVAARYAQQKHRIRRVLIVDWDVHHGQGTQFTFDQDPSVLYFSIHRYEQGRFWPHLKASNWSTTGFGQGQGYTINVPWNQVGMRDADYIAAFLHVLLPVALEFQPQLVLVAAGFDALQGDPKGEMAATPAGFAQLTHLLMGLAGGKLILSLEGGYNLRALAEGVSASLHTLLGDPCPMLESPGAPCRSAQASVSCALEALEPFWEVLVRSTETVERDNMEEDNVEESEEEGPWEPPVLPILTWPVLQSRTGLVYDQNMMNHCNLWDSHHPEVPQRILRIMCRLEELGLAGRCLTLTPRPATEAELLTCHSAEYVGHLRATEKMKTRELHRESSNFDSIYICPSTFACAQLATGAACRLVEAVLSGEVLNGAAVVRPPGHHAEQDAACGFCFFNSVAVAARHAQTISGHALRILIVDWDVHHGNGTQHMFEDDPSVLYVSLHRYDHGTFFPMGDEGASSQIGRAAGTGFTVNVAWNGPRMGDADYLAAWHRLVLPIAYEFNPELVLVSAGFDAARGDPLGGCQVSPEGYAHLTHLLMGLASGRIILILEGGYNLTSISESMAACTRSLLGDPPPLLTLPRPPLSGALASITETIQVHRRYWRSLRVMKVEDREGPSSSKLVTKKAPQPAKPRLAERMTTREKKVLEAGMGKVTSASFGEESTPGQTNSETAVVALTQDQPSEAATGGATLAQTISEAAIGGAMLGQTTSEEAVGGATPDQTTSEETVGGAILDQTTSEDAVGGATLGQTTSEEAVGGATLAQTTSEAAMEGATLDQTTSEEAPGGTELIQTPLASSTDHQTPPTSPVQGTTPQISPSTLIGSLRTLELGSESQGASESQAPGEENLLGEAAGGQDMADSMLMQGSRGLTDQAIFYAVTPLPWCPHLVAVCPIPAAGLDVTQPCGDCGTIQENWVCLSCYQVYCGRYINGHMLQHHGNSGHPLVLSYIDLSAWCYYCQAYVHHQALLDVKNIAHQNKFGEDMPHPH
Measurement Notes: HDAC6 enzyme inhibitory assay (HDAC-Glo I/II Assay kit)
Format: biochemical
Condition Summary: 1 μM test compound; read-out: HDAC6 inhibitory rate (%) (1 μM)
Reported Endpoint: inhibition at 1 µM

{"Compound": "Cc1nn(C)c(C)c1C(=O)N1CCOC[C@@H]1CNC(=O)c1ccc(-c2noc(C(F)(F)F)n2)cc1", "Experimental Result": "95%"}
{"Compound": "O=C(NCC1COCCN1C(=O)c1cccc(F)c1)c1ccc(-c2noc(C(F)(F)F)n2)cc1 (stereo not shown) [Example 4]", "Experimental Result": "100%"}
{"Compound": "Cc1cc(C(=O)N2CCOC[C@@H]2CNC(=O)c2ccc(-c3noc(C(F)(F)F)n3)cc2)cc(O)n1", "Experimental Result": "95%"}
{"Compound": "Cc1nonc1C(=O)N1CCOC[C@@H]1CNC(=O)c1ccc(-c2noc(C(F)(F)F)n2)cc1", "Experimental Result": "98%"}
{"Compound": "N#Cc1ccc(C(=O)N2CCOC[C@@H]2CNC(=O)c2ccc(-c3noc(C(F)(F)F)n3)cn2)cc1", "Experimental Result": "95%"}
{"Compound": "Cn1ccc(C(=O)N2CCOC[C@@H]2CNC(=O)c2ccc(-c3noc(C(F)(F)F)n3)cc2)n1", "Experimental Result": "75%"}
{"Compound": "Cc1nonc1C(=O)N1CCOC[C@@H]1CNC(=O)c1ccc(-c2noc(C(F)(F)F)n2)cn1", "Experimental Result": "97%"}
{"Compound": "O=C(NC[C@H]1COCCN1C(=O)N1CCC[C@H]1C(F)(F)F)c1ccc(-c2noc(C(F)(F)F)n2)cc1", "Experimental Result": "91%"}
{"Compound": "CC(C)(C(=O)N1CCOC[C@@H]1CNC(=O)c1ccc(-c2noc(C(F)(F)F)n2)s1)c1ccccc1", "Experimental Result": "99%"}
{"Compound": "O=C(NC[C@@H]1COCCN1C(=O)C1CCOCC1)c1ccc(-c2noc(C(F)(F)F)n2)cc1", "Experimental Result": "92%"}
{"Compound": "N#C[C@@H]1CCCN1C(=O)N1CCOC[C@@H]1CNC(=O)c1ccc(-c2noc(C(F)(F)F)n2)cc1", "Experimental Result": "83%"}
{"Compound": "N#Cc1ccc(C(=O)N2CCOCC2CNC(=O)c2ccc(-c3noc(C(F)(F)F)n3)cc2)cc1 (stereo in doubt)", "Experimental Result": "93%"}
{"Compound": "O=C(NCC1COCCN1C(=O)C1CC1)c1ccc(-c2noc(C(F)(F)F)n2)s1 (stereo not shown)", "Experimental Result": "97%"}
{"Compound": "O=C(NCC1COCCN1C(=O)c1cc(Cl)cc(Cl)c1)c1ccc(-c2noc(C(F)(F)F)n2)cc1 (stereo in doubt) [Example 112]", "Experimental Result": "97%"}
{"Compound": "Cc1ncsc1C(=O)N1CCOCC1CNC(=O)c1ccc(-c2noc(C(F)(F)F)n2)s1 (stereo not shown)", "Experimental Result": "98%"}
{"Compound": "O=C(NC[C@@H]1COCCN1C(=O)C1CCCCC1)c1ccc(-c2noc(C(F)(F)F)n2)s1", "Experimental Result": "98%"}
{"Compound": "N#Cc1ccccc1C(=O)N1CCOCC1CNC(=O)c1ccc(-c2noc(C(F)(F)F)n2)s1 (stereo not shown)", "Experimental Result": "94%"}
{"Compound": "O=C(NC[C@H]1COCCN1C(=O)N1C2CCC1COC2)c1ccc(-c2noc(C(F)(F)F)n2)cc1", "Experimental Result": "99%"}
{"Compound": "O=C(NC[C@H]1COCCN1C(=O)c1cc2ncccn2n1)c1ccc(-c2noc(C(F)(F)F)n2)cc1", "Experimental Result": "95%"}
{"Compound": "O=C(NC[C@@H]1COCCN1C(=O)C1(c2ccccc2)CC1)c1ccc(-c2noc(C(F)(F)F)n2)cn1", "Experimental Result": "92%"}
{"Compound": "O=C(NCC1COCCN1C(=O)c1ccnc(C2CC2)c1)c1ccc(-c2noc(C(F)(F)F)n2)cc1 (stereo not shown)", "Experimental Result": "98%"}
{"Compound": "O=C(NC[C@@H]1COCCN1C(=O)C1(c2ccccc2)CC1)c1ccc(-c2noc(C(F)(F)F)n2)cc1", "Experimental Result": "92%"}
{"Compound": "O=C(NC[C@H]1COCCN1C(=O)c1ccno1)c1ccc(-c2noc(C(F)(F)F)n2)cc1", "Experimental Result": "97%"}
{"Compound": "O=C(NC[C@H]1COCCN1C(=O)c1cccc(-c2ccccc2)c1)c1ccc(-c2noc(C(F)(F)F)n2)s1", "Experimental Result": "94%"}
{"Compound": "O=C(NCC1COCCN1C(=O)c1ccncc1)c1ccc(-c2noc(C(F)(F)F)n2)cc1 (stereo in doubt) [Example 120]", "Experimental Result": "96%"}
